PBM binding z-score values for the sequences below.
# System: PPARg:RXRa 30nM:10nM, anti-RXR (NR concentration 30 nM, RXRa partner concentration 10 nM)
# Assay details: PBM binding z-score (relative to random genomic background probes); higher = stronger binding; sequences stand for … in GC…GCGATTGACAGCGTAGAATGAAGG
Please state the value as a number alone, without comment.

Below: 3 sequences and their reported PBM binding z-score.
ATCTGTAGGTTAAGGGTCATTCAGGTTGGTTCGC; 9.65
ATCTCTAGGTAACAAGTTGAGTGAAAGAGAGGAC; 0.856
ATATGTAGGTTATCGGGTCATTCCGTTTGCGCAT; 3.37

Ask: Bench note: what PBM binding z-score did ATCGAAAGGTCGTGAGGTGAGTCTACAGAAAGGC show?
Reply: 1.17

Ask: Bench note: what PBM binding z-score did CTCGTAAGGTCGGTTGAGGTGAGTATACGGATAA show?
Reply: -0.175

Ask: Bench note: what PBM binding z-score did CAGCCCAGGTCAGGGCCAGTATAGGAGGAACGTT show?
Reply: -0.353

Ask: Bench note: what PBM binding z-score did GCTATTAGTTGATAGGGCAACCGAATGATTCTCG show?
Reply: 0.376

Ask: Bench note: what PBM binding z-score did CGTCCAAGGGCAAAGGTCAGTGAAGAGATGACGG show?
Reply: 5.37

Ask: Bench note: what PBM binding z-score did CCTACTGGGCCAAGGTCATTGATCAGTCAAAGCA show?
Reply: 1.5

Value source: the supplement of paper PMC6555819
